- EXPERIMENTAL_SYSTEM: HLA-A2 MHC-I (HLA-A*0204) (Homo sapiens, UniProt P04439, D140Y/D185E/D98H/E176V/E277Q/G131W/G231S/I119V/I121M/I166T/I218V/L300P/L318F/N151K/N90K/P208A/P217A/Q86G/Q94H/R138H/R169H/T345S)
- EXPERIMENT_NOTES: biochemical
Peptide text beside a SMILES is read from it.
MEASURE_NAME: Kd (nM)
Entry rule: numbers only, all in nM.

{"COMPOUND": "CC[C@H](C)[C@H](NC(=O)[C@@H]1CCCN1C(=O)[C@@H]1CCCN1C(=O)[C@H](CC(N)=O)NC(=O)CNC(=O)[C@@H](N)[C@@H](C)O)C(=O)N1CCC[C@H]1C(=O)N[C@H](C(=O)O)C(C)C [8.123natG] (H-TGNPPIPV-OH)", "Kd, nM": 700}

Which measured Kd value corresponds to CC[C@H](C)[C@H](NC(=O)[C@@H]1CCCN1C(=O)[C@@H]1CCCN1C(=O)[C@H](CC(C)C)NC(=O)[C@H](CC(C)C)NC(=O)[C@@H](N)CC(C)C)C(=O)N[C@@H](CCC(=O)O)C(=O)N[C@@H](CCCNC(=N)N)C(=O)N[C@H](C(=O)O)C(C)C [8.14mod] (H-LLLPPIERV-OH) ?
4.4

Which measured Kd value corresponds to CC(C)C[C@H](NC(=O)[C@H](CCCCN)NC(=O)[C@H](Cc1ccccc1)NC(=O)[C@H](CS)NC(=O)[C@@H](N)Cc1c[nH]c2ccccc12)C(=O)N[C@H](C(=O)N1CCC[C@H]1C(=O)N[C@H](C(=O)O)C(C)C)C(C)C [8.121nat] (H-WCFKLVPV-OH) ?
200
